ASSAYED_SYSTEM: von Willebrand factor (VWF) (Homo sapiens, UniProt P04275 P04275:764-2813)
ASSAY_REMARKS: filter; Bmax 49%; 2 mM CaCl2, 37 C
CONDITIONS_USED: tags: factor VIII free, Haematologic Technologies Inc; label: 5'-32P
Kd values, listed per item
ENDPOINT_LABEL: Kd (nM)

{"BINDER": "ACGAACUGCCCUCAGCACUUAUGUGCUGACGCACAGACGU (ssRNA, 2'-F C and U; 2'-OH A and G; 3' idT) [T41]", "ENDPOINT_LABEL": "Kd", "NUMERIC_READOUT": 8.6}
{"BINDER": "ACGAACUGCCCUCGAUCGACGCACAGACGU (ssRNA, rAfCrGmAmAmCfUmGfCfCfCfUmCmGmAmUmCmGrAfCmGfCmAmCmAmGmAfCrGfU-idT) [T59 vrt3]", "ENDPOINT_LABEL": "Kd", "NUMERIC_READOUT": 288}
